- System: UO-31 renal
- assay: NCI-60 one-dose screen, 48 h (100 = growth as untreated, 0 = no growth, -100 = all killed)
- experimentalParameters: 10 µM unless noted
The panel holds about 83,000 compounds, 20% with a hit somewhere; the sample as a whole holds those more often.
Measured growth by item
readoutType: growth (%)

smi=O=C(/C=C/c1cccc(C(F)(F)F)c1)Nc1cccc(C(F)(F)F)c1 target="UO-31 renal" readouttype=growth testresult=47.7
smi=CC(=O)N(O)CCCCCNC(=O)CCC(=O)N(O)CCCCCNC(=O)CCC(=O)N(O)CCCCCN(CCCCCCCCCC[P+](c1ccccc1)(c1ccccc1)c1ccccc1)CCCCCCCCCC[P+](c1ccccc1)(c1ccccc1)c1ccccc1 target="UO-31 renal" readouttype=growth testresult=52.3
smi=N#Cc1cccc(-c2cc(-c3ccc4c(c3)OCCO4)[nH]n2)c1 target="UO-31 renal" readouttype=growth testresult=42.8
smi=COc1ccc(OC)c(CCn2cncc2-c2c[nH]c3ccc(Cl)cc23)c1 target="UO-31 renal" readouttype=growth testresult=46.6
smi=CNC(=O)c1cc(Oc2ccc3c(c2)sc2nc(-c4ccc(N(C)C)cc4)cn23)ccn1 target="UO-31 renal" readouttype=growth testresult=33
smi=Cc1[nH]c(C(=O)Nc2ccc(S(=O)(=O)N3CCCCC3)cc2OCCOCCOCCOCCOCCOCCOCCOCCOCCOc2cc(S(=O)(=O)N3CCCCC3)ccc2NC(=O)c2[nH]c(C)c3c2CCCCC3=O)c2c1C(=O)CCCC2 target="UO-31 renal" readouttype=growth testresult=40.5
smi=O=S(=O)(Oc1ccc(-c2cn3ccoc3n2)cc1)c1cccc(C(F)(F)F)c1 target="UO-31 renal" readouttype=growth testresult=93.1
